EXPERIMENTAL PARAMETERS: in methanol, 313.15 K
PARAMETER MEASURED: solubility (mole fraction)

c1ccc2c(c1)sc1ccccc12 ... 0.0321

###

EXPERIMENTAL PARAMETERS: in methanol, 303.15 K
PARAMETER MEASURED: solubility (mole fraction)

c1ccc2c(c1)sc1ccccc12 ... 0.0189

Values from BigSolDB 2.1
